B1: ZNF8 (parent)
chain: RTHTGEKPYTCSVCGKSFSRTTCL

Variants of: B1
Measurement Protocol: protein stability index of a GFP-peptide fusion (GPS, HEK-293T) (PSI 1-6); higher = more stable;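 also: lentivirally expressed fusions sorted by FACS into six bins by GFP to DsRed ratio, PSI derived from sequencing read proportions per bin multiplied by bin number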
Condition Description: c terminus: a fixed tail appended

- Input Sequence: "RTHTGEKPYTCSVCGKSFSRVTCL"
  protein stability index: 2.36
- Input Sequence: "RTHTGEKKYTCSVCGKSFSRTTCL"
  protein stability index: 2.04
- Input Sequence: "VTHTGEKPYTCSVCGKSFSRTTCL"
  protein stability index: 3.18
- Input Sequence: "RTPTGEKPYTCSVCGKSFSRTTCL"
  protein stability index: 2.46
- Input Sequence: "RTHTGEVPYTCSVCGKSFSRTTCL"
  protein stability index: 2.44
- Input Sequence: "RTHTGEKPYTCSRCGKSFSRTTCL"
  protein stability index: 1.99
- Input Sequence: "RTHTGEKPYTCSVCQKSFSRTTCL"
  protein stability index: 1.75
- Input Sequence: "RTHTGEKPYTCKVCGKSFSRTTCL"
  protein stability index: 2.13
- Input Sequence: "RTHTGEKPYTDSVCGKSFSRTTCL"
  protein stability index: 2.83
- Input Sequence: "RTHTGEKPYTCSVCGKSFSRTWCL"
  protein stability index: 1.86
- Input Sequence: "RTHTGEKPYTCSVCGKWFSRTTCL"
  protein stability index: 1.82
- Input Sequence: "LTHTGEKPYTCSVCGKSFSRTTCL"
  protein stability index: 1.94
- Input Sequence: "RTHTGEKPYTCSLCGKSFSRTTCL"
  protein stability index: 2.23
- Input Sequence: "RTHTHEKPYTCSVCGKSFSRTTCL"
  protein stability index: 2.25
- Input Sequence: "RTHTGEKPYTQSVCGKSFSRTTCL"
  protein stability index: 3.18
- Input Sequence: "RTHTGEKPYTCSVCGKSFSRTQCL"
  protein stability index: 2.5
- Input Sequence: "RTHTGEKPYTCSVCGKSFSRMTCL"
  protein stability index: 2.39
- Input Sequence: "RTHTGEKPYTCSKCGKSFSRTTCL"
  protein stability index: 2.61
- Input Sequence: "RTHTGEKPYTCSACGKSFSRTTCL"
  protein stability index: 2.26
- Input Sequence: "RTHTGEKPYTCSVCGKSHSRTTCL"
  protein stability index: 4.78
- Input Sequence: "RTHTGEKPVTCSVCGKSFSRTTCL"
  protein stability index: 2.65
- Input Sequence: "RTHTGEKPYFCSVCGKSFSRTTCL"
  protein stability index: 1.89
- Input Sequence: "RTHTGEKPYTCSVCGKSFSRTTCQ"
  protein stability index: 2.96
- Input Sequence: "RTHTGEKPYTCSVCGKSQSRTTCL"
  protein stability index: 2.39
- Input Sequence: "RTHTGEKGYTCSVCGKSFSRTTCL"
  protein stability index: 2.9
- Input Sequence: "RTHTGEKPYTCSVCGKSFSRTTSL"
  protein stability index: 2.03
- Input Sequence: "RTHTGIKPYTCSVCGKSFSRTTCL"
  protein stability index: 2.75
- Input Sequence: "RTHTGEKPYTCSVCGKSFSETTCL"
  protein stability index: 3.14
- Input Sequence: "RTHTGEKPYTCSVGGKSFSRTTCL"
  protein stability index: 1.99
- Input Sequence: "RTHTGEKPYTCSVPGKSFSRTTCL"
  protein stability index: 2.82
- Input Sequence: "RTHTGEKPYTCSVCGKSFSRRTCL"
  protein stability index: 2.39
- Input Sequence: "RTHTGEKPYTNSVCGKSFSRTTCL"
  protein stability index: 2.79
- Input Sequence: "RTHTGEKPYTCSVCGKSKSRTTCL"
  protein stability index: 2.5
- Input Sequence: "RTHNGEKPYTCSVCGKSFSRTTCL"
  protein stability index: 3.12
- Input Sequence: "RTHTGEKPYTCSVCGKSFSRTTCN"
  protein stability index: 3.03
- Input Sequence: "RTHTGEKPYTCSVCGKSFSRTFCL"
  protein stability index: 2.3
- Input Sequence: "RTHTGEKPYTCSVCGVSFSRTTCL"
  protein stability index: 1.96
- Input Sequence: "RTHTGEKPYTCSECGKSFSRTTCL"
  protein stability index: 2.47
- Input Sequence: "RTHTGEKPFTCSVCGKSFSRTTCL"
  protein stability index: 2.32
- Input Sequence: "RTHTGEKPYTCSVCGKSFSRTTCI"
  protein stability index: 2.8
- Input Sequence: "RTHTGDKPYTCSVCGKSFSRTTCL"
  protein stability index: 2.9
- Input Sequence: "PTHTGEKPYTCSVCGKSFSRTTCL"
  protein stability index: 2.64
